Where do the numbers come from? From PubChem BioAssay (NCI).

- Tested on: SK-MEL-2 melanoma
- method-description: NCI-60 one-dose screen, 48 h (100 = growth as untreated, 0 = no growth, -100 = all killed)
- run-conditions: 10 µM unless noted
- Experimental: Growth inhibition of the SK-MEL-2 human tumor cell line is measured as a screen for anti-cancer activity. Cells are grown in 96 well plates and exposed to the test compound for 48 hours. Compounds are tested at a single concentration, which is 10^-5 M for most compounds. The reported endpoint is percent growth (GI% or GIPRCNT), where numbers from 0 - 100% represent growth inhibition, and numbers from -100% - 0 represent cell death. For example, a value of 40 represents 60% growth inhibition. […]
Compounds without any hit were thinned out: in the full panel of roughly 83,000, 20% have a hit.
readout: growth (%)
# unit: % | format: bare number

INPUT: Requested read-out growth, target or system SK-MEL-2 melanoma, entry `Oc1ccccc1C=NCCN=Cc1ccccc1O.[Fe]`
OUTPUT: 92.4

INPUT: Form field - read-out: growth; system: SK-MEL-2 melanoma; submitted item: CC1=CC(=O)CCC12CCOC2=O (stereo unspecified)
OUTPUT: 125

INPUT: Fill in the recorded growth for this molecule, with SK-MEL-2 melanoma as test system: `CCN(CC)CCn1c(=O)n(C)c2ccccc21`
OUTPUT: 109

INPUT: Hi! What's the reported growth for `C[C@]12CC[C@H](O)C[C@@H]1CC[C@@H]1[C@@H]2CC[C@]2(C)OC(=O)CC[C@@H]12` on SK-MEL-2 melanoma?
OUTPUT: 108

INPUT: Please tell me: growth of `Cc1cc(N(CCCl)CCCl)ccc1C=Nc1ccc(-c2csc(-c3ccccc3)n2)cc1` , system SK-MEL-2 melanoma?
OUTPUT: 97.2

INPUT: Value wanted: growth (SK-MEL-2 melanoma) of entry `CC[C@H](C)[C@H](NC(=O)[C@H]1CCCCN1C)C(=O)N(C)[C@H](C[C@@H](OC(C)=O)c1cccc(C(=O)N[C@@H](Cc2ccccc2)C[C@H](C)C(=O)OC)n1)C(C)C`
OUTPUT: 22.1

INPUT: Lab note: need growth for N#CC(N)c1ccccc1 (stereo unspecified) on SK-MEL-2 melanoma, anyone have it?
OUTPUT: 122

INPUT: Recorded growth for `CC(C)CCC1C(=O)NC(=O)NC1=O` with SK-MEL-2 melanoma, please?
OUTPUT: 81.8

INPUT: Notebook: pull reported growth for SK-MEL-2 melanoma, entry `CCOP(=O)(NC)OCC`
OUTPUT: 124

====

- System: M14 melanoma
- method-description: NCI-60 one-dose screen, 48 h (100 = growth as untreated, 0 = no growth, -100 = all killed)
- run-conditions: 10 µM unless noted
Compounds without any hit were thinned out: in the full panel of roughly 83,000, 20% have a hit.
The entries below are paired with their reported growth.
Your answer should be a plain number; it is taken to be in %.

Example entries begin here.
[
  {
    "compound": "O=C1c2ccccc2C(=O)N1N1CC1c1ccccc1 (configuration not stated)",
    "growth (%)": 100
  },
  {
    "compound": "CC(C)CCC1C(=O)NC(=O)NC1=O",
    "growth (%)": 99.9
  },
  {
    "compound": "c1ccc2c(c1)sc1ccccc12",
    "growth (%)": 94
  }
]

INPUT: For the compound `O=C(Cc1ccccc1)c1ccccc1` , what growth is on record?
OUTPUT: 107

INPUT: Returns the measured growth for the input compound. Input: `Oc1cc(Cl)ccc1Oc1ccc(Cl)cc1Cl`
OUTPUT: 22.1

INPUT: Please give the measured growth for this compound: `C/C(=C\c1ccn(-c2ccc(N)c(C(F)(F)F)c2)n1)[C@@H]1C[C@@H]2O[C@]2(C)CCC[C@H](C)[C@H](O)[C@@H](C)C(=O)C(C)(C)[C@@H](O)CC(=O)O1`
OUTPUT: 21.7

INPUT: Would you mind telling me what growth value was observed for `O=C(O)CNCP(=O)(O)O` ?
OUTPUT: 101

====

Items are presented alongside their recorded growth.
- Tested on: LOX IMVI melanoma
- method-description: NCI-60 one-dose screen, 48 h (100 = growth as untreated, 0 = no growth, -100 = all killed)
- run-conditions: 10 µM unless noted
This is part of a sample that, as a whole, favours compounds with a hit. Of some 83,000 tested, about 20% had one in any assay.
Your answer should be a plain number; it is taken to be in %.

These recorded examples may help you get a feel for the data.
[
  {
    "smiles-structure": "CC(C)COC(=O)Cc1ccccc1",
    "readout": "growth",
    "units-label": "%",
    "result": 101
  },
  {
    "smiles-structure": "O=C(O)C(F)F",
    "readout": "growth",
    "units-label": "%",
    "result": 99
  },
  {
    "smiles-structure": "CN1CCN(c2ccc(Cl)cc2)CC1",
    "readout": "growth",
    "units-label": "%",
    "result": 70.5
  },
  {
    "smiles-structure": "O=S(=O)(F)c1cccc(Cl)c1C[P+](c1ccccc1)(c1ccccc1)c1ccccc1",
    "readout": "growth",
    "units-label": "%",
    "result": 101
  }
]

INPUT: Under LOX IMVI melanoma: growth value of `CC1=CC(=Nc2ccc(N(CCCl)CCCl)cc2)C=C(C)C1=O` ?
OUTPUT: 16.9

INPUT: Fill in the recorded growth for this compound, with LOX IMVI melanoma as test system: `Cc1cc2c(cc1-c1ccnc(/C=C/C(=O)O)c1)C(C)(C)CCC2(C)C`
OUTPUT: 46.9

INPUT: Could you share what growth was measured for `Oc1cc(N2CC2)c(O)cc1N1CC1` , tested on LOX IMVI melanoma?
OUTPUT: 1.44

INPUT: Enter reported growth observed with LOX IMVI melanoma for `COC[C@H]1OC(=O)c2coc3c2[C@@]1(C)C1=C(C3=O)[C@@H]2CCC(=O)[C@@]2(C)C[C@H]1OC(C)=O`
OUTPUT: 54.3

INPUT: Tell me reported growth for `COC(=O)CCP(CCC(=O)OC)c1ccccc1` , tested with LOX IMVI melanoma.
OUTPUT: 100

INPUT: Param readout= growth; system= LOX IMVI melanoma; entry= `CCN(CC)CCn1c(=O)n(C)c2ccccc21` ; returns value.
OUTPUT: 98.4

====

- Test system: K-562 leukemia
- method-description: NCI-60 one-dose screen, 48 h (100 = growth as untreated, 0 = no growth, -100 = all killed)
- run-conditions: 10 µM unless noted
The panel holds about 83,000 compounds, 20% with a hit somewhere; the sample as a whole holds those more often.
Response field label: string, one of true (1) (growth strictly below 30%) or false (0).

[
  {
    "compound": "NC1CN2CCC1CC2 (stereo unspecified)",
    "classification": "false (0)"
  },
  {
    "compound": "S=P(SP(=S)(c1ccccc1)c1ccccc1)(c1ccccc1)c1ccccc1",
    "classification": "false (0)"
  },
  {
    "compound": "CCOC(=O)c1cncn1C(C)c1ccccc1 (stereo unspecified)",
    "classification": "false (0)"
  },
  {
    "compound": "C[C@]12CCc3nc(-c4ccc(O)c(O)c4)sc3C1=CC[C@@H]1[C@@H]2CC[C@]2(C)C(=O)CC[C@@H]12",
    "classification": "false (0)"
  },
  {
    "compound": "CNC(=O)Oc1ccc(Cl)cc1SSc1cc(Cl)ccc1OC(=O)NC",
    "classification": "false (0)"
  },
  {
    "compound": "O=C(NCCCN1CC1)Nc1cccc2ccccc12",
    "classification": "false (0)"
  },
  {
    "compound": "O=[N+]([O-])c1cc(Br)c(O)c(Br)c1",
    "classification": "false (0)"
  },
  {
    "compound": "CCCN1C(=O)NC(=O)C(CC)(N2C(=O)c3c(F)c(F)c(F)c(F)c3C2=O)C1=O (stereo unspecified)",
    "classification": "true (1)"
  },
  {
    "compound": "COc1ccc2c(c1)c(-c1nc(-c3c[nH]c4ncccc34)cs1)cn2CCCCN1CCOCC1",
    "classification": "true (1)"
  },
  {
    "compound": "N#CCN(CC#N)[N+](=O)[O-]",
    "classification": "false (0)"
  }
]

INPUT: Would you kindly verify if growth of `CC[C@@H](C)C(=O)O[C@H]1[C@H](O)[C@H]2[C@@H](CN3C[C@@H](C)CC[C@H]3[C@@]2(C)O)[C@@H]2C[C@]34O[C@]5(O)[C@@H](OC(=O)[C@@](C)(O)CC)CC[C@@]3(C)[C@@H]5[C@@H](OC(C)=O)[C@@H](OC(C)=O)[C@H]4[C@@]21O` is strictly less than 30%?
OUTPUT: false (0)

INPUT: Find out if reported growth for `Cc1c2ccncc2c(C)c2c1[nH]c1ccccc12` is less than 30%
OUTPUT: true (1)

INPUT: Does this compound meet the criterion growth < 30%? CCCC1CCCCC12C(=O)NC(=O)NC2=O (stereo unspecified)
OUTPUT: false (0)

INPUT: Report whether reported growth is lower than 30% (strictly) for `O=P(O)(Nc1ccccc1)Nc1ccccc1`
OUTPUT: false (0)

INPUT: Please state whether growth is below 30% for `C[N+]1(CC#CC[N+]2(C)CCCC2)CCCC1`
OUTPUT: false (0)
